target: phosphoinositide-specific phospholipase C (PI-PLC) (Bacillus cereus); experiment: PI-PLC-induced liposome (LUV) aggregation assay, turbidity at […] nm, dose-response
Sequence (P14262 32-329 limits assumed): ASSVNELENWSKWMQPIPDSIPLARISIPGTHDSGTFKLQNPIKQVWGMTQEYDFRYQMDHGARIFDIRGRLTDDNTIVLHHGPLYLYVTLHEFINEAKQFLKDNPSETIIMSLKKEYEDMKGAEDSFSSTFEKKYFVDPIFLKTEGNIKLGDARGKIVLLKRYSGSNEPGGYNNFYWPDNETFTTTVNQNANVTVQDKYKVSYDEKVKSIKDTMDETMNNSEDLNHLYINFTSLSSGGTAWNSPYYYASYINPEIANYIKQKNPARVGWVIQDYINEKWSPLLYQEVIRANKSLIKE
value kind: IC50
Express the reported value numerically, then name its unit.

Fill blank: measured IC50 of the compound `N#C[C@@H]1CCCN1C(=O)CNC12CC3CC(CC(O)(C3)C1)C2` is ____.
100 µM
